# experimental-protocol: chemical genetic growth profiling, strain panel (AID 1159580);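 also: tested at 20 µM; growth read once vehicle control cultures reached saturation at 30 °C; 1 = growth at the plate median or of vehicle wells; lower values mean less growth of the strain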
# setup-conditions: S. cerevisiae deletion strains, growth OD, locus YDL185W, strain tfp1, active compounds read low
Out of some 5,500 compounds screened, about 2,000 (36%) were called active. About 18% were inconclusive and are not listed. The list shows a part of the results.
Criterion: normalized growth strictly less than 1. Met: Satisfied. Not met: Not satisfied.

1) CN1C2CC3C[C@H]1C(O3)C2O (stereo not given in full) :: Not satisfied
2) CC(=O)[C@H]1CCC2C3C[C@H](C)C4=CC(=O)CC[C@]4(C)C3[C@@H](O)C[C@@]21C (stereo not given in full) :: Satisfied
3) CC(=O)O[C@]1(C(C)=O)CCC2C3C[C@H](C)C4=CC(=O)CC[C@]4(C)C3CC[C@@]21C (stereo not given in full) :: Satisfied
4) O=C(/C=C/C=C/c1ccc2c(c1)OCO2)N1CCCCC1 :: Satisfied
5) COc1c(CC=C(C)C)c2c(c3oc(=O)c(-c4ccc(O)cc4)c(O)c13)C=CC(C)(C)O2 :: Not satisfied

* * *

# experimental-protocol: chemical genetic growth profiling, strain panel (AID 1159580)
# setup-conditions: S. cerevisiae deletion strains, growth OD, locus YJL187C, strain SWE1, active compounds read low
The campaign covered roughly 5,500 compounds. About 2,000 (36%) were called active. Another 18% or so got no clear call; they are omitted. This is one part of the list.
Recorded normalized growth values for a group of compounds are listed next.
attribute-measured: normalized growth

1. COc1ccc([C@@H]2CC(=O)c3c(O)cc(O)cc3O2)cc1O :: 0.981
2. C[C@@H]1O[C@@H](O[C@H]2[C@@H](Oc3cc(O)c4c(c3)O[C@H](c3ccc(O)cc3)CC4=O)O[C@H](CO)[C@@H](O)[C@@H]2O)[C@H](O)[C@H](O)[C@H]1O :: 0.974
3. COc1ccc(C2CC(=O)c3ccc(OC)cc3O2)cc1 (stereo not given) :: 0.948
4. O=C1C[C@@H](c2ccc(O)cc2)Oc2cc(O)cc(O)c21 :: 0.965
5. COc1cc2c(cc1OC)C(=O)C(CC1CCN(Cc3ccccc3)CC1)C2 (stereo not given) :: 0.975

* * *

Recorded normalized growth values for a group of compounds are listed next.
# experimental-protocol: chemical genetic growth profiling, strain panel (AID 1159580)
# setup-conditions: S. cerevisiae deletion strains, growth OD, locus YOR231W, strain MKK1, active compounds read low
The whole screen tested about 5,500 compounds, of which about 2,000 (36%) were called active. Roughly 18% stayed inconclusive and do not appear here. This is one part of the list.
attribute-measured: normalized growth

1. C[C@@H]1O[C@@H](O[C@H]2[C@@H](Oc3cc(O)c4c(c3)O[C@H](c3ccc(O)cc3)CC4=O)O[C@H](CO)[C@@H](O)[C@@H]2O)[C@H](O)[C@H](O)[C@H]1O :: 0.98
2. COc1ccc([C@@H]2CC(=O)c3c(O)cc(O)cc3O2)cc1O :: 1.02
3. CC(C)(N=NC(C)(C)C(=N)N)C(=N)N :: 0.976
4. O=C1C[C@@H](c2ccc(O)cc2)Oc2cc(O)cc(O)c21 :: 0.95
5. O=C(/C=C/C=C/c1ccc2c(c1)OCO2)N1CCCCC1 :: 0.982

* * *

Recorded normalized growth values for a group of compounds are listed next.
# experimental-protocol: chemical genetic growth profiling, strain panel (AID 1159580);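 also: tested at 20 µM; growth read once vehicle control cultures reached saturation at 30 °C; 1 = growth at the plate median or of vehicle wells; lower values mean less growth of the strain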
# setup-conditions: S. cerevisiae deletion strains, growth OD, locus YAL021C, strain ccr4, active compounds read low
Screen size: about 5,500 compounds; about 2,000 (36%) were called active. Roughly 18% stayed inconclusive and do not appear here. This is one part of the list.
attribute-measured: normalized growth

1) NC(N)=Nc1nc(CSCCC(N)=NS(N)(=O)=O)cs1 :: 0.996
2) COc1ccc([C@@H]2CC(=O)c3c(O)cc(O)cc3O2)cc1O :: 0.976
3) CCCCCC(C)N (configuration not stated) :: 1.02
4) C[C@@H](N)CO :: 0.998
5) CCOC(=O)c1ncn2c1CN(C)C(=O)c1cc(F)ccc1-2 :: 1.01
6) S=C=NCc1ccccc1 :: 0.661
7) CNc1ccccc1C(=O)N1CCc2c([nH]c3ccccc23)C1=O :: 0.962
8) COC(=O)C1[C@H]2C[C@H]3c4[nH]c5ccccc5c4CCN3C[C@@H]2CC[C@@H]1O (some centres not stated) :: 0.991
9) COc1ccc(-c2cc(=O)c3c(O)cc(OC)c(OC)c3o2)c(OC)c1 :: 0.977
10) Cn1cc[nH]c1=S :: 0.981
11) C[C@@H]1O[C@@H](O[C@H]2[C@@H](Oc3cc(O)c4c(c3)O[C@H](c3ccc(O)cc3)CC4=O)O[C@H](CO)[C@@H](O)[C@@H]2O)[C@H](O)[C@H](O)[C@H]1O :: 0.969
12) O=C1C[C@@H](c2ccc(O)cc2)Oc2cc(O)cc(O)c21 :: 0.987

* * *

# experimental-protocol: chemical genetic growth profiling, strain panel (AID 1159580);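 also: tested at 20 µM; growth read once vehicle control cultures reached saturation at 30 °C; 1 = growth at the plate median or of vehicle wells; lower values mean less growth of the strain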
# setup-conditions: S. cerevisiae deletion strains, growth OD, locus YKL160W, strain elf1, active compounds read low
The whole screen tested about 5,500 compounds, of which about 2,000 (36%) were called active. Not shown: some 18% with an inconclusive outcome. Some of the results follow.
attribute-measured: normalized growth

1. CC(=O)O[C@H]1C(=O)[C@@]2(C)C([C@H](OC(=O)c3ccccc3)[C@]3(O)C[C@H](OC(=O)[C@H](O)[C@@H](NC(=O)c4ccccc4)c4ccccc4)C(C)=C1C3(C)C)[C@]1(OC(C)=O)CO[C@@H]1C[C@@H]2O (some centres undefined) :: 1.01 (inactive)
2. CC(C(=O)O)c1ccc2c(c1)[nH]c1ccc(Cl)cc12 (centres undefined) :: 0.941 (inactive)
3. O=C(O)c1cc(=O)c2ccc(Cl)cc2[nH]1 :: 1.05 (inactive)
4. COc1cc(OC)c2c(c1)O[C@H](c1ccc(OC)c(OC)c1)[C@@H](O)C2 :: 1.02 (inactive)
5. NC[C@@H]1O[C@H](O[C@@H]2[C@@H](CO)OC(O[C@@H]3[C@@H](O)[C@H](N)C[C@H](N)[C@H]3OC3O[C@H](CN)[C@@H](O)[C@H](O)[C@H]3N)[C@@H]2O)[C@H](N)[C@@H](O)[C@@H]1O (some centres undefined) :: 1.02 (inactive)
6. COc1ccc2c(c1)OC[C@@H](Cc1ccc(OC)c(OC)c1)[C@H]2O :: 1.01 (inactive)
7. c1ccc(CC2=NCCN2)cc1 :: 1.03 (inactive)
8. c1ccc(CN(CC2=NCCN2)c2ccccc2)cc1 :: 1.02 (inactive)
9. Cc1ccc2c(c1)CC[C@H]1CC(=O)CC[C@]21C :: 1.01 (inactive)

* * *

# experimental-protocol: chemical genetic growth profiling, strain panel (AID 1159580);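 also: tested at 20 µM; growth read once vehicle control cultures reached saturation at 30 °C; 1 = growth at the plate median or of vehicle wells; lower values mean less growth of the strain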
# setup-conditions: S. cerevisiae deletion strains, growth OD, locus YDR101C, strain arx1
Screen size: about 5,500 compounds; about 2,000 (36%) were called active. Not shown: some 18% with an inconclusive outcome. Rule as the data show it: active = normalized growth mostly below about 0.91 (no sharp cut-off); inconclusive = no clear call, values can overlap the other calls; inactive = mostly above about 0.92. The list shows a part of the results.
Classes used: active, inactive

1) CC(C(=O)O)c1ccc2c(c1)[nH]c1ccc(Cl)cc12 (configuration not stated) :: inactive
2) O=C(O)c1ccccc1OP(=O)(O)O :: inactive
3) COc1ccc(-c2coc3c(O)c(OC)ccc3c2=O)cc1 :: active
4) Nc1nc2[nH]c(=O)c(=O)[nH]c2c(=O)[nH]1 :: inactive
5) CCc1cccc(C)c1N(C(=O)CCl)C(C)COC (configuration not stated) :: inactive
6) CNC1(C)C2CCC(C2)C1(C)C (configuration not stated) :: inactive
7) COc1ccc(-c2coc3c(OC)c(OC)cc(OC)c3c2=O)cc1 :: inactive
8) C[CH2][Hg][S]c1ccccc1C(=O)O :: active
9) CC(C)CC1C(=O)N2CCC[C@H]2C2(O)O[C@](NC(=O)C3C=C4c5cccc6[nH]c(Br)c(c56)C[C@H]4N(C)C3)(C(C)C)C(=O)N12 (some centres not stated) :: inactive
10) CC[C@@H](CO)NCCN[C@@H](CC)CO :: inactive
11) CC(C)N(C(=O)CCl)c1ccccc1 :: inactive
12) CCCCOc1ccc(C(=O)CCN2CCCCC2)cc1 :: inactive
13) CCC(C(N)=O)c1ccccc1 (configuration not stated) :: inactive
14) CCOC(=O)/C=C(\C)OP(=O)(OC)OC :: inactive
15) COc1ccc(-c2coc3c(OC)c(OC)cc(O)c3c2=O)cc1 :: inactive
16) COc1ccc(-c2coc3c(OC)c(O)ccc3c2=O)cc1 :: inactive
17) O=C(O)COc1cc(Cl)c(Cl)cc1Cl :: inactive
18) Cc1ccc(C(=O)C(C)CN2CCCCC2)cc1 (configuration not stated) :: inactive
19) COc1cc(O)c(C(=O)c2ccccc2)cc1O :: inactive
20) CCCCOc1ccc(OCCCN2CCOCC2)cc1 :: active
21) NC(N)=Nc1nc(CSCCC(N)=NS(N)(=O)=O)cs1 :: inactive
22) O=C(O)c1cc(=O)c2cc(Cl)ccc2[nH]1 :: inactive
23) COc1ccc(C(=O)c2ccccc2)c(O)c1 :: active
24) COC(=O)COc1ccc(Cl)cc1Cl :: inactive
25) COc1ccc(C(=O)c2ccccc2O)c(O)c1 :: inactive
26) CCC(C(=O)O)c1ccccc1 (configuration not stated) :: inactive
27) O=C(O)c1cc(=O)c2ccc(Cl)cc2[nH]1 :: inactive
